Target: T1, mRBM20(513-621) R595M (Mus musculus, UniProt Q3UQS8 513-621, R595M)
T1 sequence: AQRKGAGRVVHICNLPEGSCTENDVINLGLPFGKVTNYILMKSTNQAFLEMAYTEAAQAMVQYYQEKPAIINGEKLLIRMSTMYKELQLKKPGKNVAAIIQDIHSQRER
Experiment: ITC

BINDER	Kd
AUCUUA (ssRNA)	29.3 µM
